Exercise: for every item that follows, state its recorded EC50.
# Tested on: Friedreich ataxia patient-derived human dermal fibroblasts
# RUN DESCRIPTION: Cell viability evaluation test using human dermal fibroblasts derived from a Friedreich ataxia patient (BSO stress)
# Type: cell-based
# RUN CONDITIONS: Fibroblast, rescue of cell viability, 30 μM BSO, 48 hours, Calcein-AM fluorescence, no BSO = 100%, BSO only = 0%
State the answer as a number, implicitly in nM.

Requested read-out: EC50. Entry: CN(C)C1=NC2=C(c3ccc4cnn(C)c4c3)C(=O)c3ccccc3C2=N1
14.5

// query: Cc1cc(C#N)ccc1C1=C2N=C(N(C)C)N=C2c2ccccc2C1=O
9.5

// query: Cc1nn(C)cc1C1=C2N=C(N(C)C)N=C2c2ccccc2C1=O
12.1

// query: CN(C)C1=NC2=C(c3ccccc3F)C(=O)c3ccccc3C2=N1
14

// query: Cc1cccc(C2=C3N=C(N(C)C)N=C3c3ccccc3C2=O)c1
6

// query: CN(C)C1=NC2=C(c3ccccc3C#N)C(=O)c3ccccc3C2=N1
15

// query: COc1cccc(C2=C3N=C(N(C)C)N=C3c3ccccc3C2=O)c1C
17.1

// query: CN(C)C1=NC2=C(c3ccc(N4CCOCC4)cc3)C(=O)c3ccccc3C2=N1
11.6

// query: COc1ccc(C2=C3N=C(N(C)C)N=C3c3ccccc3C2=O)c(Cl)c1
16.5

// query: CCN(CC)C1=NC2=C(c3cccc(OC)c3C)C(=O)c3ccccc3C2=N1
17.1

// query: CCN(CC)C1=NC2=C(c3cccc(OC)c3F)C(=O)c3ccccc3C2=N1
29.1

// query: CCOc1ccc(C2=C3N=C(N(C)C)N=C3c3ccccc3C2=O)c(C)c1
18.4

// query: Cc1noc(C)c1C1=C2N=C(N(C)C)N=C2c2ccccc2C1=O
6.1

// query: CN(C)C(=O)c1cccc(C2=C3N=C(N(C)C)N=C3c3ccccc3C2=O)c1
12.9

###

Exercise: for every item that follows, state its recorded pEC50.
# System: Friedreich ataxia patient-derived human dermal fibroblasts
# RUN DESCRIPTION: Cell viability evaluation test using human dermal fibroblasts derived from a Friedreich ataxia patient (BSO stress)
# Type: cell-based
# RUN CONDITIONS: Fibroblast, rescue of cell viability, 30 μM BSO, 48 hours, Calcein-AM fluorescence, no BSO = 100%, BSO only = 0%
# pEC50 is unitless: minus log10 of the molar concentration; print number only

Query pEC50 on Friedreich ataxia patient-derived human dermal fibroblasts for COc1ccc(C2=C3N=C(N(C)C)N=C3c3ccccc3C2=O)c(C)c1
8.04

// query: Cc1cc(C(F)(F)F)ccc1C1=C2N=C(N(C)C)N=C2c2ccccc2C1=O
8.23

// query: CCN(CC)C1=NC2=C(c3c(C)noc3C)C(=O)c3ccccc3C2=N1
7.83

// query: CN(C)C1=NC2=C(c3ccccc3N(C)C)C(=O)c3ccccc3C2=N1
8.07

// query: COc1ccc(C2=C3N=C(N(C)C)N=C3c3ccccc3C2=O)c(C(F)(F)F)c1
7.82

// query: Cc1cc(F)ccc1C1=C2N=C(N(C)C)N=C2c2ccccc2C1=O
8.10
